- System: UniProt P49682
- Sequence (P49682 whole entry): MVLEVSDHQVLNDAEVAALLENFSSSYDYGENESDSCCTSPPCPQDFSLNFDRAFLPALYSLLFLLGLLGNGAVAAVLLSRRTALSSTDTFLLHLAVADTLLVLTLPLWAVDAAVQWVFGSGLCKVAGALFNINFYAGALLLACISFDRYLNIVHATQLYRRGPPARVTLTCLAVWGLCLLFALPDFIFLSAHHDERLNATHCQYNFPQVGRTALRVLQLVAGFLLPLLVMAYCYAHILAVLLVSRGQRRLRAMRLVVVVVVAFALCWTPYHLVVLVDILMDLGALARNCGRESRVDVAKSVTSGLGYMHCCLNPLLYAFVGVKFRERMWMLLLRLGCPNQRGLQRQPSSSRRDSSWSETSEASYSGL
- Test Name: Negative allosteric modulation of CXCR3 in human PBMC assessed as inhibition of CXCL11-induced migration at 150 uM preincubated for 1 hr followed by CXCL11 addition measured after 3 hrs by flow cytometry based transwell assay relative to control
- Type: functional, cell-based
Attribute: inhibition

Examples with their reported inhibition follow.
>>> df
                        structure_as_smiles  result
0  O=C(NC1CCN(Cc2ccc(Cl)cc2)CC1)c1ccc(-n2cccn2)nc1     80%
1  COc1ccc(CN2CCN(C(=O)c3ccc(-n4cccn4)nc3)CC2)cc1   > 20%

**Q:** Data request, read-out inhibition, for O=C(c1ccc(-n2cccn2)nc1)N1CCN(Cc2ccc(Cl)cc2)CC1
**A:** > 20%

**Q:** Consider next the compound O=C(NC1CCN(Cc2ccc(F)c(F)c2)CC1)c1ccc(-n2cccn2)nc1 in the same way.
**A:** > 20%

**Q:** Consider next the compound O=C(c1ccc(-n2cccn2)nc1)N1CCC(N(Cc2ccccc2)Cc2ccc(Cl)c(Cl)c2)CC1 in the same way.
**A:** > 20%

Values were extracted from ChEMBL document CHEMBL4152266.
